Entries below carry reported Ki on Beta-1 adrenergic receptor (Rattus norvegicus).
Sequence (P18090 whole entry): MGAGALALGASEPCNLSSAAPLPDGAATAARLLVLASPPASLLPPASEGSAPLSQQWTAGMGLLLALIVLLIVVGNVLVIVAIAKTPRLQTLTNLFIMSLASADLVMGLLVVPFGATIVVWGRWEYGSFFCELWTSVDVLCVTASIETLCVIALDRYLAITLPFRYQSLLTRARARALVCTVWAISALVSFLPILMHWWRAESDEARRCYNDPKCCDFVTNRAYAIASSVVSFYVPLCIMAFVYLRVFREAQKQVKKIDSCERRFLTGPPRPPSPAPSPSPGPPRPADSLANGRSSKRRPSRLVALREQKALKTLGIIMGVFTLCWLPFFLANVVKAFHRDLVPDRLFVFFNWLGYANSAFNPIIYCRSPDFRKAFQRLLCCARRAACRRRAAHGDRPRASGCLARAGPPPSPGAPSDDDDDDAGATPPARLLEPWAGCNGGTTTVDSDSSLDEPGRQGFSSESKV
# include the unit after the value

{"columns": ["compound", "Ki"],
 "data": [
  ["COc1ccccc1OCCNCC(O)COc1cccc2c(=O)c3ccccc3oc12.Cl (racemic)", "852 nM"],
  ["Cl.O=c1c2ccccc2oc2cc(OCC(O)CN3CCN(c4ccccn4)CC3)ccc12 (racemic)", "1570 nM"],
  ["COc1ccccc1CCNCC(O)COc1cccc2c(=O)c3ccccc3oc12.Cl (racemic)", "359 nM"],
  ["COc1ccc(CCNCC(O)COc2cccc3c(=O)c4ccccc4oc23)cc1OC.Cl (racemic)", "357 nM"],
  ["Cl.O=c1c2ccccc2oc2c(OCC(O)CN3CCN(c4ccccn4)CC3)cccc12 (racemic)", "213 nM"]
]}

Next up:
Query the reported Ki for Beta-1 adrenergic receptor (Rattus norvegicus); item: COc1ccccc1CNCC(O)COc1cccc2c(=O)c3ccccc3oc12.Cl (racemic)
10.8 nM

====

Below, each entry is listed alongside its reported Kb.
molecular target: Beta-2 adrenergic receptor (Cavia porcellus); assay: Antagonist activity at adrenergic beta2 receptor in isolated guinea pig trachea assessed as inhibition of isoprenaline-induced bronchodilation incubated for 20 mins; assay type: functional; settings: read-out: pA2 (converted)
Sequence (Q8K4Z4 whole entry): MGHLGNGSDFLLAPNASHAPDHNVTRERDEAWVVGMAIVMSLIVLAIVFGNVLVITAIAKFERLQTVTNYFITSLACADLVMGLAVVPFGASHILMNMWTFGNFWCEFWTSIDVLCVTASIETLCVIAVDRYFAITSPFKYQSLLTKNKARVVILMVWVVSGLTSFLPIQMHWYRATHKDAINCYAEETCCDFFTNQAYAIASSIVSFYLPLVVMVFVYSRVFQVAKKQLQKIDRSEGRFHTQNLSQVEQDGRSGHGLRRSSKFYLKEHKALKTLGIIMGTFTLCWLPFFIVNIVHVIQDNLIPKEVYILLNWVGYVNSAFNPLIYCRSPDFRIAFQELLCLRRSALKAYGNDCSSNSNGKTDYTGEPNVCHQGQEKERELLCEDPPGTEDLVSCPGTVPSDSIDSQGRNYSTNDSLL
# include the unit after the value

Past entries and their recorded results:
{"columns": ["compound", "Kb"],
 "data": [
  ["COc1ccc(CCNCC(O)COc2cccc3c(=O)c4ccccc4oc23)cc1OC.Cl (racemic)", "41.4 nM"],
  ["COc1ccccc1OCCNCC(O)COc1cccc2c(=O)c3ccccc3oc12.Cl (racemic)", "18.1 nM"],
  ["COc1ccccc1CNCC(O)COc1cccc2c(=O)c3ccccc3oc12.Cl (racemic)", "114 nM"],
  ["COc1ccccc1CCNCC(O)COc1cccc2c(=O)c3ccccc3oc12.Cl (racemic)", "21.4 nM"],
  ["CC(C)(C)NCC(O)COc1cccc2c(=O)c3ccccc3oc12.Cl (racemic)", "0.31 nM"]
]}

Query: Kb; subject: Cc1cccc2c(=O)c3ccc(OCC(O)CNC(C)(C)C)cc3oc12.Cl (racemic)
655 nM

====

system: Rattus norvegicus; test: Hypotensive activity in normotensive Wistar rat assessed as systolic blood pressure at 5 mg/kg, iv measured after 30 mins (reference value: 119.2 to 148.6 mmHg); format: functional
measuredParameter: Activity (mmHg)
Value expressed in mmHg; do not type the unit.

Query: Activity; subject: COc1ccccc1CNCC(O)COc1cccc2c(=O)c3ccccc3oc12.Cl (racemic)
126

Query: Activity; subject: Cc1cccc2c(=O)c3ccc(OCC(O)CNC(C)(C)C)cc3oc12.Cl (racemic)
155.8

Query: Activity; subject: COc1ccccc1CCNCC(O)COc1cccc2c(=O)c3ccccc3oc12.Cl (racemic)
126

Query: Activity; subject: Cl.O=c1c2ccccc2oc2cc(OCC(O)CN3CCN(c4ccccn4)CC3)ccc12 (racemic)
108.7

Query: Activity; subject: Cl.O=c1c2ccccc2oc2c(OCC(O)CN3CCN(c4ccccn4)CC3)cccc12 (racemic)
126.6

Query: Activity; subject: COc1ccc(CCNCC(O)COc2cccc3c(=O)c4ccccc4oc23)cc1OC.Cl (racemic)
128

Query: Activity; subject: COc1ccccc1OCCNCC(O)COc1cccc2c(=O)c3ccccc3oc12.Cl (racemic)
94.5

====

tested on: Rattus norvegicus; assay: Cardiotoxicity in Wistar rat assessed as effect on QTC interval time at 5 mg/kg, iv measured after 1 min (reference value: 136.7 to 146.2 ms); type: toxicity, organism-based; settings: in vivo
measuredParameter: Time (ms)
Value expressed in ms; do not type the unit.

Past entries and their recorded results:
{"columns": ["compound", "measurementUnits", "Time"],
 "data": [
  ["COc1ccccc1CCNCC(O)COc1cccc2c(=O)c3ccccc3oc12.Cl (racemic)", "ms", 149.3],
  ["COc1ccccc1OCCNCC(O)COc1cccc2c(=O)c3ccccc3oc12.Cl (racemic)", "ms", 157.2],
  ["Cl.O=c1c2ccccc2oc2c(OCC(O)CN3CCN(c4ccccn4)CC3)cccc12 (racemic)", "ms", 145.4],
  ["COc1ccccc1CNCC(O)COc1cccc2c(=O)c3ccccc3oc12.Cl (racemic)", "ms", 151.4],
  ["Cl.O=c1c2ccccc2oc2cc(OCC(O)CN3CCN(c4ccccn4)CC3)ccc12 (racemic)", "ms", 140.2],
  ["COc1ccc(CCNCC(O)COc2cccc3c(=O)c4ccccc4oc23)cc1OC.Cl (racemic)", "ms", 128.1]
]}

Next up:
Query: Time; subject: Cc1cccc2c(=O)c3ccc(OCC(O)CNC(C)(C)C)cc3oc12.Cl (racemic)
139.8
